Recorded residual activity by entry
- measurement target: PLK2 (human) (UniProt Q9NYY3)
- Sequence (Q9NYY3 whole entry, looked up): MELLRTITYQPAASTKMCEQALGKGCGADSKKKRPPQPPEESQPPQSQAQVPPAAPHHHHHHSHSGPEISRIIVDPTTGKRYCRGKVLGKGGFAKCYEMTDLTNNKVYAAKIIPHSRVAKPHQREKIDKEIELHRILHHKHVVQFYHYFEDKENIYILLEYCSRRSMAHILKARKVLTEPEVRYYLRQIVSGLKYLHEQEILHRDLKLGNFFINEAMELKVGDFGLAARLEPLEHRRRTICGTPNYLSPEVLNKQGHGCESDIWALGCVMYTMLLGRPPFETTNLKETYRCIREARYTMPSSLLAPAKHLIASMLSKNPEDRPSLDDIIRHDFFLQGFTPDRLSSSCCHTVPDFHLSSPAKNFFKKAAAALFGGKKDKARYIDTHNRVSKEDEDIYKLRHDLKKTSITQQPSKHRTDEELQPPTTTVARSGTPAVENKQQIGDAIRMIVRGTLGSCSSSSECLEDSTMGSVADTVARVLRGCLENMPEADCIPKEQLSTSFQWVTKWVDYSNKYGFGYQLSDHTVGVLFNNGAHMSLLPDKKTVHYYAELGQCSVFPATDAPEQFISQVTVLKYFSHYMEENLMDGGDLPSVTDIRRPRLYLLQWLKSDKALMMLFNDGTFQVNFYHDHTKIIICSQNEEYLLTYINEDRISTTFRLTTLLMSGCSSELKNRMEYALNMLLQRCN
- test details: radiometric filter-binding kinase assay, Kinase HotSpot
- stated conditions: compound 0.5 µM; ATP 10 µM
measured property: residual activity (%)

INSERT INTO results (smiles_data, experimental_value) VALUES
  ('N#Cc1c(NC(=O)c2cccc3ccccc23)sc2c1CCCC2', 101),
  ('CCCCc1c(-c2ccc(O)cc2)[nH]c2nccnc12', 83.9),
  ('Cc1cc(Nc2nc(-c3ccccc3)nc3ccccc23)n[nH]1', 110),
  ('O=C(O)c1ccc2c3c1cccc3c(=O)n1c3ccccc3nc21', 97),
  ('Nc1ncnc2c1cnn2-c1ccccc1', 99.2),
  ('COc1cc2c(N3CCN(C(=O)Nc4ccc(OC(C)C)cc4)CC3)ncnc2cc1OCCCN1CCCCC1', 99.8),
  ('N#C/C(=C1/Nc2ccccc2S1)c1ccnc(NCCc2cccnc2)n1', 95.8),
  ('O=C1NC(=O)c2c1c1c3ccccc3[nH]c1c1[nH]c3cc(Br)ccc3c21', 93.7),
  ('O=c1c(-c2ccc(F)cc2)c(-c2ccncc2)[nH]n1-c1ccc(Cl)cc1', 92.5),
  ('O=c1[nH]c2ccccc2n1C1CCN(Cc2ccc(-c3nc4cc5[nH]cnc5cc4nc3-c3ccccc3)cc2)CC1', 95.5),
  ('O=c1c2ccccc2[nH]c(=S)n1CCN1CCC(=C(c2ccc(F)cc2)c2ccc(F)cc2)CC1', 104),
  ('COc1cccc(-c2cc(=O)c3ccccc3o2)c1N', 92.5),
  ('CCc1nc(-c2ccc(OC)cc2)[nH]c1-c1ccncc1', 101),
  ('COc1cc2ncnc(Nc3ccc(O)c(Br)c3)c2cc1OC', 104);

---

- measurement target: PRKG2 (human)
- test details: radiometric filter-binding kinase assay, Kinase HotSpot
- stated conditions: compound 0.5 µM; ATP 10 µM
Recorded residual activity by entry
measured property: residual activity (%)

INSERT INTO assay_data (smiles_data, unit_string, experimental_value) VALUES
  ('Cn1cc(/C=C2\C(=O)Nc3ccc(S(N)(=O)=O)cc32)c2ccccc21', '%', 85),
  ('O=C(c1ccccc1)c1ccc(N2CCOCC2)cc1O', '%', 102),
  ('COc1cc2ncnc(Nc3ccc(O)c(Br)c3)c2cc1OC', '%', 84.1),
  ('COc1cccc(-c2cc(=O)c3ccccc3o2)c1N', '%', 101),
  ('O=c1cc(N2CCOCC2)oc2c(-c3ccccc3)cccc12', '%', 105),
  ('CCOc1cc2ncnc(Nc3cccc(Br)c3)c2cc1OCC', '%', 83.9),
  ('Nc1ncnc2c1cnn2-c1ccccc1', '%', 99.2),
  ('CCCCc1c(-c2ccc(O)cc2)[nH]c2nccnc12', '%', 92.6),
  ('O=c1c2ccccc2[nH]c(=S)n1CCN1CCC(=C(c2ccc(F)cc2)c2ccc(F)cc2)CC1', '%', 104),
  ('O=c1[nH]c2ccccc2n1C1CCN(Cc2ccc(-c3nc4cc5[nH]cnc5cc4nc3-c3ccccc3)cc2)CC1', '%', 96.8),
  ('N#C/C(=C1/Nc2ccccc2S1)c1ccnc(NCCc2cccnc2)n1', '%', 98.1),
  ('O=C1NC(=O)c2cc(Nc3ccc(F)cc3)c(Nc3ccc(F)cc3)cc21', '%', 83.3),
  ('COc1cc2c(Nc3ccc(Br)cc3F)ncnc2cc1OCC1CCN(C)CC1', '%', 101),
  ('N#CCCc1ccc2c(c1)-c1[nH]c3ccc([N+](=O)[O-])cc3c1CC(=O)N2', '%', 93.9),
  ('Cc1cc(Nc2nc(-c3ccccc3)nc3ccccc23)n[nH]1', '%', 98.2),
  ('O=S(=O)(NCCNC/C=C/c1ccc(Br)cc1)c1cccc2cnccc12', '%', 56.9);

---

- measurement target: UniProtKB Q9Y6M4
- Sequence (Q9Y6M4 whole entry, looked up): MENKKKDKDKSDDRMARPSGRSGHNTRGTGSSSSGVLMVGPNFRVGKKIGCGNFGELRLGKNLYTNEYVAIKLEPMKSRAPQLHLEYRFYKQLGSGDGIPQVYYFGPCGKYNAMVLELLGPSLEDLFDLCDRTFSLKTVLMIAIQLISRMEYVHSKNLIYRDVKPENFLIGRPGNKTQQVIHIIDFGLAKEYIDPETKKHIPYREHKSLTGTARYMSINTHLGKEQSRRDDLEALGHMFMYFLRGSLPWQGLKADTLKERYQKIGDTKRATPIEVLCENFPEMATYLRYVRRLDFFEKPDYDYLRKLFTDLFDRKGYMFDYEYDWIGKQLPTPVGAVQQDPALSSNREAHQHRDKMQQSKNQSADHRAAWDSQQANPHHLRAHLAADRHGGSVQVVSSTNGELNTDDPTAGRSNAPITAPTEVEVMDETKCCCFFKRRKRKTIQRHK
- test details: radiometric filter-binding kinase assay, Kinase HotSpot
- stated conditions: compound 0.5 µM; ATP 10 µM
Recorded residual activity by entry
measured property: residual activity

INSERT INTO assay_data (smiles_data, experimental_value) VALUES
  ('O=C(c1ccccc1)c1ccc(N2CCOCC2)cc1O', '98.8%'),
  ('O=c1cc(N2CCOCC2)oc2c(-c3ccccc3)cccc12', '92.4%'),
  ('O=C(O)c1ccc2c3c1cccc3c(=O)n1c3ccccc3nc21', '96.9%'),
  ('CCc1nc(-c2ccc(OC)cc2)[nH]c1-c1ccncc1', '106%'),
  ('Cc1cc(Nc2nc(-c3ccccc3)nc3ccccc23)n[nH]1', '75%'),
  ('CCOc1cc2ncnc(Nc3cccc(Br)c3)c2cc1OCC', '98.7%'),
  ('COc1cc2c(cc1OC)-c1[nH]nc(Nc3cccc(F)c3)c1C2', '95%'),
  ('c1ccc(-c2cnc(Nc3ccc(OCCN4CCCC4)cc3)s2)cc1', '91.8%'),
  ('FC(F)(F)c1ccc(/C=C/c2nc(COc3ccc(CCCCn4ccnn4)cc3)co2)cc1', '96.7%'),
  ('COc1cc2c(Nc3ccc(Br)cc3F)ncnc2cc1OCC1CCN(C)CC1', '98.1%'),
  ('O=S(=O)(NCCNC/C=C/c1ccc(Br)cc1)c1cccc2cnccc12', '93.3%'),
  ('O=c1[nH]c2ccccc2n1C1CCN(Cc2ccc(-c3nc4cc5[nH]cnc5cc4nc3-c3ccccc3)cc2)CC1', '96.5%'),
  ('O=C1NC(=O)c2c1c1c3ccccc3[nH]c1c1[nH]c3cc(Br)ccc3c21', '94.6%'),
  ('O=c1c(-c2ccc(F)cc2)c(-c2ccncc2)[nH]n1-c1ccc(Cl)cc1', '102%'),
  ('Nc1ncnc2c1cnn2-c1ccccc1', '93.4%'),
  ('N#C/C(=C1/Nc2ccccc2S1)c1ccnc(NCCc2cccnc2)n1', '87.1%'),
  ('N#Cc1c(NC(=O)c2cccc3ccccc23)sc2c1CCCC2', '104%'),
  ('N#CCCc1ccc2c(c1)-c1[nH]c3ccc([N+](=O)[O-])cc3c1CC(=O)N2', '89.7%'),
  ('COc1cc2c(N3CCN(C(=O)Nc4ccc(OC(C)C)cc4)CC3)ncnc2cc1OCCCN1CCCCC1', '95%'),
  ('N/C(=N\N=C/c1ccc(-c2cccc([N+](=O)[O-])c2)o1)N[N+](=O)[O-]', '86.2%'),
  ('Cn1cc(/C=C2\C(=O)Nc3ccc(S(N)(=O)=O)cc32)c2ccccc21', '109%'),
  ('CCCCc1c(-c2ccc(O)cc2)[nH]c2nccnc12', '82.3%');

---

- measurement target: VRK1 (human)
- test details: radiometric filter-binding kinase assay, Kinase HotSpot
- stated conditions: compound 0.5 µM; ATP 10 µM
measured property: residual activity (%)

INSERT INTO measurements (smiles_data, measured_property, experimental_value) VALUES
  ('O=C(c1ccccc1)c1ccc(N2CCOCC2)cc1O', 'residual activity', 89.7),
  ('Cn1cc(/C=C2\C(=O)Nc3ccc(S(N)(=O)=O)cc32)c2ccccc21', 'residual activity', 103),
  ('N#Cc1c(NC(=O)c2cccc3ccccc23)sc2c1CCCC2', 'residual activity', 87.2),
  ('O=c1cc(N2CCOCC2)oc2c(-c3ccccc3)cccc12', 'residual activity', 85.4);

---

Recorded residual activity by entry
- measurement target: CDK1 CCNA2 (human) (UniProt P06493+P20248)
- Sequence (P06493 whole entry, looked up): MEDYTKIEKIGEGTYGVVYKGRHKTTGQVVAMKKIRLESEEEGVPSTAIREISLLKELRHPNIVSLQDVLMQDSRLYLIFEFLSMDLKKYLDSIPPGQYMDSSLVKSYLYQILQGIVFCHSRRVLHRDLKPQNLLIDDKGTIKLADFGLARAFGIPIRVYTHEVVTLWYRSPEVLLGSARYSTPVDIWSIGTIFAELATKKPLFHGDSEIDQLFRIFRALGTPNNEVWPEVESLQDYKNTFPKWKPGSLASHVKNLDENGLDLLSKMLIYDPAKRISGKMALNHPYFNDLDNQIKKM
- Sequence (P20248 whole entry, looked up): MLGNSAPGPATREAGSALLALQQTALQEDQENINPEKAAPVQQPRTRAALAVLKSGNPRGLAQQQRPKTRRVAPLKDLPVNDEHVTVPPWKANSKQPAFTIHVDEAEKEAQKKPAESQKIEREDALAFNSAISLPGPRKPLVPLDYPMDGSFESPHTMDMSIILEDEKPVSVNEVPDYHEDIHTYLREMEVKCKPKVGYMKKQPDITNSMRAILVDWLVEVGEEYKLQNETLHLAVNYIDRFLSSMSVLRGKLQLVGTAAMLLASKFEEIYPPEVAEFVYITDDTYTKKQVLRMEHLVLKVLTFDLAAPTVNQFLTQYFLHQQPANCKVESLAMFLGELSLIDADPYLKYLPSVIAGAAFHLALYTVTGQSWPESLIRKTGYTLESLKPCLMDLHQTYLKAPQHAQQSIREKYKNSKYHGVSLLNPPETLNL
- test details: radiometric filter-binding kinase assay, Kinase HotSpot
- stated conditions: compound 0.5 µM; ATP 10 µM
measured property: residual activity (%)

INSERT INTO measurements (smiles_data, unit_string, experimental_value) VALUES
  ('O=C1NC(=O)c2c1c1c3ccccc3[nH]c1c1[nH]c3cc(Br)ccc3c21', '%', 91.9),
  ('O=S(=O)(NCCNC/C=C/c1ccc(Br)cc1)c1cccc2cnccc12', '%', 95.3),
  ('O=c1c2ccccc2[nH]c(=S)n1CCN1CCC(=C(c2ccc(F)cc2)c2ccc(F)cc2)CC1', '%', 96.8),
  ('N#Cc1c(NC(=O)c2cccc3ccccc23)sc2c1CCCC2', '%', 92.1),
  ('CCOc1cc2ncnc(Nc3cccc(Br)c3)c2cc1OCC', '%', 94.7),
  ('COc1cc2c(Nc3ccc(Br)cc3F)ncnc2cc1OCC1CCN(C)CC1', '%', 100),
  ('O=c1cc(N2CCOCC2)oc2c(-c3ccccc3)cccc12', '%', 92),
  ('O=C(O)c1ccc2c3c1cccc3c(=O)n1c3ccccc3nc21', '%', 78.1),
  ('COc1cc2ncnc(Nc3ccc(O)c(Br)c3)c2cc1OC', '%', 101),
  ('O=c1c(-c2ccc(F)cc2)c(-c2ccncc2)[nH]n1-c1ccc(Cl)cc1', '%', 83.1),
  ('N/C(=N\N=C/c1ccc(-c2cccc([N+](=O)[O-])c2)o1)N[N+](=O)[O-]', '%', 100),
  ('FC(F)(F)c1ccc(/C=C/c2nc(COc3ccc(CCCCn4ccnn4)cc3)co2)cc1', '%', 92.6),
  ('CCCCc1c(-c2ccc(O)cc2)[nH]c2nccnc12', '%', 60.3),
  ('CCc1nc(-c2ccc(OC)cc2)[nH]c1-c1ccncc1', '%', 91.8),
  ('COc1cc2c(N3CCN(C(=O)Nc4ccc(OC(C)C)cc4)CC3)ncnc2cc1OCCCN1CCCCC1', '%', 96),
  ('c1ccc(-c2cnc(Nc3ccc(OCCN4CCCC4)cc3)s2)cc1', '%', 95.2),
  ('CC(C)(C)n1nc(Cc2cccc3ccccc23)c2c(N)ncnc21', '%', 94.8),
  ('O=C(c1ccccc1)c1ccc(N2CCOCC2)cc1O', '%', 103),
  ('COc1cccc(-c2cc(=O)c3ccccc3o2)c1N', '%', 83.8),
  ('O=C1NC(=O)c2cc(Nc3ccc(F)cc3)c(Nc3ccc(F)cc3)cc21', '%', 96.1),
  ('Cn1cc(/C=C2\C(=O)Nc3ccc(S(N)(=O)=O)cc32)c2ccccc21', '%', 56.9),
  ('N#CCCc1ccc2c(c1)-c1[nH]c3ccc([N+](=O)[O-])cc3c1CC(=O)N2', '%', 24.8);
